Where do these numbers come from? They come from PubChem BioAssay AID328.

System: BDF1 mice, P388 leukemia ip, median survival T/C
assay_summary: NCI In Vivo Anticancer Drug Screen. Data for tumor model P388 Leukemia (intraperitoneal) in B6D2F1 (BDF1) mice
assay_context: endpoint: median survival time; dose: 40.0 mg/kg/injection; schedule: Q01DX009 (ip); vehicle: saline
Toxic doses and inconclusive results are not listed. How the source made its calls: active means survival T/C of 150% or more; inactive means T/C below 125% in these data.
Answer with one of the outcomes given here: active, inactive

Query: Which outcome was assigned to C=C1C(=O)OC2C=C(C)CC3C=C(CCC=C(C)CCC12)C(=O)O3 (stereo not given) in this test?
Reply: inactive

Query: Which outcome was assigned to OC1OC(COC(c2ccccc2)(c2ccccc2)c2ccccc2)C(O)C(O)C1O (stereo not given) in this test?
Reply: inactive

Query: Which outcome was assigned to COc1cc2c(ccc3c4cc(OC)c(OC)cc4c[n+](C)c23)cc1O in this test?
Reply: active

Query: Which outcome was assigned to COc1cc2c(cc1OC)C(NC(C)=O)N(C)c1c-2ccc2cc3c(cc12)OCO3 (stereo not given) in this test?
Reply: active

Query: Which outcome was assigned to Nc1c(Cl)c(Cl)nc(C(=O)O)c1Cl in this test?
Reply: inactive

###

Tested on: BDF1 mice, P388 leukemia ip, median survival T/C
assay_summary: NCI In Vivo Anticancer Drug Screen. Data for tumor model P388 Leukemia (intraperitoneal) in B6D2F1 (BDF1) mice
assay_context: endpoint: median survival time; dose: 100.0 mg/kg/injection; schedule: Q01DX001 (ip); vehicle: saline with Tween-80; higher = longer survival
Inconclusive results and toxic doses are left out.
I'd be grateful if you could share measured T/C for these entries.

Query: State, in one line, measured T/C of Nc1ccccc1-c1ccc([N+](=O)[O-])cc1
Reply: 95 % of control

Query: State, in one line, measured T/C of COC(=O)C(CC(O)c1ccccc1)N1CCOCC1 (stereo unspecified)
Reply: 100 % of control

Query: State, in one line, measured T/C of COC1=C(OC)C(=O)C2=C(OCCO2)C1=O
Reply: 104 % of control

Query: State, in one line, measured T/C of c1ccc(SCC2c3ccccc3Nc3ccccc32)cc1
Reply: 109 % of control

Query: State, in one line, measured T/C of O=C1c2ccccc2CC1(Cl)Cl
Reply: 101 % of control

Query: State, in one line, measured T/C of COc1cc(Nc2nc(N)ncc2N)cc(OC)c1OC
Reply: 91 % of control

Query: State, in one line, measured T/C of CCCCCCCCCCCC(=O)Nc1ccc(C(=O)OCC)cc1
Reply: 91 % of control

Query: State, in one line, measured T/C of CC(O)(CCCCCCCC(C)(O)c1ccccc1)c1ccccc1 (stereo unspecified)
Reply: 100 % of control

Query: State, in one line, measured T/C of CCn1c2ccc([N+](=O)[O-])cc2c2c([N+](=O)[O-])cccc21
Reply: 110 % of control

Query: State, in one line, measured T/C of CCOC(=O)/C(C#N)=C1\CCc2cc(OC)ccc21
Reply: 92 % of control

Query: State, in one line, measured T/C of O=S(=O)(Nc1ccc(NS(=O)(=O)c2ccccc2)c(S(=O)(=O)c2ccccc2)c1)c1ccccc1
Reply: 100 % of control

Query: State, in one line, measured T/C of O=C(c1ccccc1)C(c1ccccc1)C(O)(C(F)(F)F)C(F)(F)F (stereo unspecified)
Reply: 100 % of control

Query: State, in one line, measured T/C of CC1=Nc2ccccc2N(C)/C1=C/C1=C(Cl)C(=O)c2ccccc2C1=O
Reply: 108 % of control

Query: State, in one line, measured T/C of CC1C(=O)COCC1=O
Reply: 102 % of control

Query: State, in one line, measured T/C of CC(C)c1ccc(NC(=O)Nc2cccc3ccccc23)cc1
Reply: 109 % of control

Query: State, in one line, measured T/C of CCOC(=O)/C=C(\C)SC1=CC(=O)C=CC1=O
Reply: 106 % of control
